- System: LPS-activated NO production in RAW 264.7 macrophages
- assay_details: Inhibition of LPS-induced NO production (Griess reagent assay, nitrite)
- Assay type: cell-based, mouse
- condition: ratio to quercetin IC50 34.58 μM
reported_property: fold NO inhibitory activity compared with quercetin

# compound, assay_result
measured = [
    ("CC(=O)OC(C)(C)C1OC23OC1CC(C)C2C1(C)CC(=O)C2=C(C(O)CC4C5(CCC(O5)C4(C)C)C2)C1(C)C3O (stereo not drawn) [Compound 3, 25-O-acetyl-7β-hydroxy-11-oxoacerinol]", "five"),
    ("CC(=O)OC(C)(C)C1OC23OC1CC(C)C2C1(C)CCC2=C(CCC4C(=CCC(OC5OCC(O)C(O)C5O)C4(C)C)C2)C1(C)C3O (stereo not shown) [Compound 4, cimicitaiwanin D]", "three"),
    ("CC(C=CC1C(C)CC(O)CC1(C)C)=CC(=O)O (stereo not shown) [Compound 6]", "two"),
]
